System: HBV
ASSAY_PROTOCOL: qPCR test in the HBV in vitro test (HBV DNA in HepG2.2.15 cells)
Type: cell-based
TEST_CONDITIONS: Hepatitis B virus, 192 h, HBV DNA in HepG2.2.15 culture medium, day 8, read-out: Half maximal inhibitory concentration (EC50) of HBV
Procedure: To evaluate the inhibitory effect of the compound on HBV by detecting content of HBV DNA in HepG2.2.15 cells in a real-time qPCR test, with EC50 of the compound as an indicator. 3.1. HepG2.2.15 cells (4×10^4 cells/well) were inoculated into a 96-well plate and cultured at 37° C. in 5% CO2 overnight. 3.2. […] 3.8.1. […] Calculation of EC50: half maximal inhibitory concentration (EC50) of the compound for HBV was calculated using GraphPad Prism software. […]
pEC50: −log10 of the molar value.
PROPERTY_MEASURED: pEC50

INSERT INTO results (compound, measured_result) VALUES
  ('O=C(NC12CCC(C(=O)O)(CC1)CC2)C(=O)c1c(Cl)c(C(=O)Nc2ccc(F)c(F)c2)c2n1CCC2 [Compound 15]', 7.43),
  ('CC(C)(CCCC(=O)O)NC(=O)C(=O)c1c(Cl)c(C(=O)Nc2ccc(F)c(F)c2)c2n1CCC2 [Compound 23]', 7.57),
  ('CC1(NC(=O)C(=O)c2c(Cl)c(C(=O)Nc3ccc(F)c(F)c3)c3n2CCC3)CCC(CC(=O)O)CC1 (stereo not shown) [Compound 13]', 7.72),
  ('CC1(NC(=O)C(=O)c2cc(C(=O)Nc3ccc(F)c(F)c3)c3n2CCC3)CCOCC1 [Compound 1]', 7.46),
  ('C[C@]1(NC(=O)C(=O)c2c(Cl)c(C(=O)Nc3ccc(F)c(F)c3)c3n2CCC3)CC[C@@H](CCC(=O)O)CC1 [Compound 21]', 8.52),
  ('CC(C)(C)OC(=O)C[C@H]1CC[C@](C)(NC(=O)C(=O)c2c(Cl)c(C(=O)Nc3cc(F)c(F)c(F)c3)c3n2CCC3)CC1 [Compound 25-3]', 8.40),
  ('N#CC1(NC(=O)C(=O)c2c(Cl)c(C(=O)Nc3ccc(F)c(F)c3)c3n2CCC3)CCOCC1 [Compound 12]', 8.30);
